- target.desc: KRAS 4B G12C protein (Homo sapiens, UniProt P01116, G12C)
- Construct: This protein contained 188 amino acids in total, including an N-terminal 6-Histidine tag; made in house; host or cells: E. coli BL21
- measurement.description: In vitro covalent adduct formation (CAF) assay by LC-MS
- Type: binding
- test.context: 60 minutes; compound 10 μM, protein 5 μM, 22° C.; percentage of protein bound by the compound
measured.quantity: CAF (10 minutes/60 minutes) at 10 micromolar: 60 minutes (%)
Quick reminder: number only, in %, skip the unit.

// below: answered molecules
{"columns": ["molecule", "assay.result"],
 "data": [
  ["C=CC(=O)N1CCN(c2nc(OC[C@@H]3CCCN3C)nc3c2CN(Cc2nc(N)cc(C)c2C(F)(F)F)C3)C[C@@H]1CC#N", 95],
  ["C=CC(=O)N1CCN(c2nc(OC[C@@H]3CCCN3C)nc3c2CN(Cc2cc(F)ccc2C)C3)C[C@@H]1CC#N", 98],
  ["C=CC(=O)N1CCN(c2nc(OC[C@@H]3CCCN3C)nc3c2CN(Cc2cc(O)ccc2C)C3)[C@@H](C)C1", 93]
]}

Entry C=CC(=O)N1CCN(c2nc(OC[C@@H]3CCCN3C)nc3c2CN(C2CCc4ccccc42)C3)C[C@@H]1Cn1ccnn1 (stereo partly shown) , CAF (10 minutes/60 minutes) at 10 micromolar: 60 minutes reported as 2

Briefly, CAF (10 minutes/60 minutes) at 10 micromolar: 60 minutes measured for C=CC(=O)N1CCN(c2nc(OC[C@@H]3CCCN3C)nc3c2CN(C2COc4ccccc42)C3)C[C@@H]1CC#N (stereo partly shown) : 75

Reported CAF (10 minutes/60 minutes) at 10 micromolar: 60 minutes for `C=CC(=O)N1CCN(c2nc(OC[C@@H]3CCCN3C)nc3c2CN(Cc2cccc4ocnc24)C3)C[C@@H]1CC#N` was 84

Entry under test: C=CC(=O)N1CCN(c2nc(OC[C@@H]3CCCN3C)nc3c2CN(C2CCc4ccccc42)C3)C[C@@H]1C#N (stereo partly shown) . Its CAF (10 minutes/60 minutes) at 10 micromolar: 60 minutes was 82
